These data points were gathered from PubChem BioAssay AID485317.

molecular target: FAD-linked sulfhydryl oxidase ALR (Homo sapiens) (UniProt P55789); assay: ALR-catalysed DTT oxidation blockers – biochemical, H2O2 detection, HRP-luminol luminescence, single point, primary screen (AID 485317); conditions: purified ALR, stronger effect = higher value, concentration not given here
Sequence (P55789 whole entry, looked up): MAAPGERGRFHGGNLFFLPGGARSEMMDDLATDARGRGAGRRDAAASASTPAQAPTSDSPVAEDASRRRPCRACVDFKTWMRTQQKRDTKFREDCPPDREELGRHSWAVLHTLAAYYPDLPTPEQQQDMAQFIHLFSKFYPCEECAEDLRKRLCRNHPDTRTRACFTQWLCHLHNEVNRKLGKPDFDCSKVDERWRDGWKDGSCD
Hit rate of the full screen: of about 290,000 compounds, about 11,000 (3.8%) were called active. The sample holds actives, similar compounds and a random draw of the others, so the mix is not that of the screen.
measuredProperty: inhibition (%)
Expressed in %, but write only the number.

Lookup: // lookup inhibition for Cc1cccc(NC(=O)c2nc(S(=O)(=O)Cc3ccccc3)ncc2Cl)c1
Found: 4.68

Lookup: Check Cc1ccc(NC(=O)C/C(N)=N/O)cc1Cl too.
Found: -7.95

Lookup: Same question for O=C(COC(=O)c1ccc(F)c(S(=O)(=O)N2CCOCC2)c1)NCc1ccc2c(c1)OCO2 please.
Found: -8.6

Lookup: Likewise for CCn1c(SCC(=O)Nc2ccc(S(=O)(=O)Nc3onc(C)c3C)cc2)nnc1-c1ccccc1 ?
Found: 53.3

Lookup: What about this molecule? CCOC(=O)c1sc(N)c(C#N)c1COC(=O)C1=COCCO1
Found: -1.4

Lookup: Proceed to COc1ccc(Cc2nnc(SCC(=O)Nc3ccc(C)c(Cl)c3)[nH]c2=O)cc1
Found: -4.08

Lookup: Field entry: Cc1nnsc1C(=O)N/N=C/c1ccccc1Cl
Found: -1.47

Lookup: And the next one, CCCN1C2CCCC1CC(NC(=O)c1cccc(OC)c1)C2 (configuration not stated) ?
Found: -4.94

Lookup: Another molecule to check: CCN(CC(=O)Nc1c(F)cccc1F)C(=O)c1ccc(-c2ccccc2)cc1
Found: -12

Lookup: Now consider Cc1cccc(CS(=O)(=O)c2ncc(Cl)c(C(=O)Nc3ccc(F)cc3)n2)c1 .
Found: 98.4

Lookup: Follow-up entry: Cc1ccc(CS(=O)(=O)c2ncc(Cl)c(C(=O)Nc3nnc(C)s3)n2)cc1
Found: 97.5

Lookup: Next molecule up: COc1ccc(-c2c(C#Cc3ccccc3)c3ccccc3n2C)cc1
Found: -4.24

----------
molecular target: FAD-linked sulfhydryl oxidase ALR (Homo sapiens) (UniProt P55789); assay: ALR-catalysed DTT oxidation blockers – biochemical, H2O2 detection, HRP-luminol luminescence, single point, primary screen (AID 485317); conditions: purified ALR, concentration not given here
The campaign covered roughly 290,000 compounds. About 11,000 (3.8%) were called active.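 The calls were made as follows: active = mean replicate inhibition above about 79%, with every replicate also reaching it (limit read from the data); inconclusive = only one of the two criteria met; inactive = mean below limit and not every replicate reaching it.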 The list comes from a sample in which actives are over-represented; it also holds close analogues and randomly drawn compounds.
Lab note: assign the record to one of true for active, false for inactive

Lookup: Lab log entry: Cc1nc2ccc(C(=O)N/N=C/c3ccc(O)cc3)cc2[nH]1 — outcome as called in the assay?
Found: true

Lookup: Lookup O=C(NCc1cccs1)c1ccc(CS(=O)Cc2ccccc2Cl)o1 (configuration not stated)
Found: false

Lookup: Item: Cc1nc(C)c(-c2csc(NCCc3ccccc3)n2)s1
Found: false

Lookup: Again, but for Cc1ccc(CNC(=O)c2ccc(CS(=O)Cc3cccc(Cl)c3)o2)cc1 (configuration not stated)
Found: true

Lookup: Now consider O=C(Nc1nnc(-c2ccccc2)o1)c1cccc(S(=O)(=O)N2CCOCC2)c1 .
Found: false

Lookup: Try this compound next: Cc1cc(NC(=O)CSc2nc(C(C)C)nc3sc4c(c23)CCC(C)C4)no1 (configuration not stated)
Found: false

Lookup: Try this compound next: CC(=O)Nc1ccc(-c2csc(NC=C3C(=O)OC(C)(C)OC3=O)n2)cc1
Found: true

Lookup: Thanks! And S=c1[nH]nc(NCCc2ccccc2)s1 ?
Found: true

Lookup: Moving on to Cc1ccc(CS(=O)Cc2ccc(C(=O)N3CCOCC3)o2)cc1 (configuration not stated)
Found: false

Lookup: Likewise for CC(C)c1nc(SCC(=O)Nc2cccc(C(=O)O)c2)c2c3c(sc2n1)CCCC3 ?
Found: true

Lookup: Queued: Cc1nonc1C(=O)N/N=C/c1ccc(O)cc1
Found: true

Lookup: Next: COc1cc(C(=O)N(C)Cc2cccc(OC)c2OC)ccc1OCC(=O)Nc1cccc(C(F)(F)F)c1
Found: false

Lookup: How about this compound: COc1ccc(/C=N/NC(=O)c2cccc(C(F)(F)F)c2)cc1
Found: false

Lookup: Same for O=C(NCCS(=O)(=O)N1CCN(c2ccc(F)cc2)CC1)c1ccc2c(c1)OCO2
Found: false

Lookup: Next: Cn1nnnc1SCC(=O)Nc1cccc(S(=O)(=O)N2CCCCC2)c1
Found: false

Lookup: Same question for S=c1[nH]nc(Nc2ccccc2)s1 please.
Found: true

Lookup: Okay, and O=C1CCc2cc(S(=O)(=O)Nc3ccc(C(F)(F)F)cc3)cc3c2N1CC3 ?
Found: false

----------
Would you kindly list inhibition for each of these compounds?
molecular target: FAD-linked sulfhydryl oxidase ALR (Homo sapiens) (UniProt P55789); assay: ALR-catalysed DTT oxidation blockers – biochemical, H2O2 detection, HRP-luminol luminescence, single point, primary screen (AID 485317); conditions: purified ALR, stronger effect = higher value, concentration not given here
In all, about 290,000 compounds went through this assay and about 11,000 (3.8%) were called active. What follows is part of a selection rich in actives, with near analogues and random picks from the rest.
Please state the figure in %; there is no need to write the unit.

Lookup: Record request: inhibition value, item CCCC(=O)N1CCc2[nH]c3ccccc3c2C1
Found: -30.4

Lookup: Here is the next compound: CCn1nc(C(=O)NNS(=O)(=O)c2cc(/C=C/C(=O)O)cc(OC)c2OC)c2ccccc2c1=O
Found: 4

Lookup: Another compound to look at: O=S(=O)(NCC1CN(S(=O)(=O)c2ccc3c(c2)OCCO3)C1)c1c(F)cccc1F
Found: -2.88

Lookup: Okay, and C[C@@H]1CN([C@H](C)CO)C(=O)c2cc(NC(=O)NC3CCCCC3)ccc2O[C@H]1CN(C)S(C)(=O)=O ?
Found: 0.076

Lookup: Same thing, different compound: COc1cccc(NC(=O)COc2cccnc2[N+](=O)[O-])c1
Found: -5.23

Lookup: Another compound to check: Fc1ccc(NC(=S)N2CCc3[nH]c4ccccc4c3C2)cc1
Found: 3.4

Lookup: Same again, this time with CCCC(=O)Nc1ncnc2c1ncn2[C@@H]1O[C@@H]2OP(=O)(O)OC[C@H]2[C@H]1OC(=O)CCC
Found: -3.4

Lookup: Now consider CC(OC(=O)CNC(=O)c1ccco1)C(=O)Nc1ccc(Cl)cn1 (configuration not stated) .
Found: -1.13

Lookup: // next record COc1ccc(Cl)cc1C(=O)OCC(=O)NCc1cccs1
Found: -0.428

Lookup: Can you check O=C(CSc1nnc(-c2ccncc2)o1)Nc1cccc(Cl)c1 next?
Found: 6.76

Lookup: Now try CC1(C)CC(=O)C=C(c2cccc3c2Oc2ccccc2S3)C1 .
Found: -3.51

Lookup: Repeat for the following compound: COc1ccc(CNC(=O)COC(=O)C(CCSC)N2C(=O)c3ccccc3C2=O)cc1 (configuration not stated)
Found: -2.44

Lookup: What about this compound? COc1cc(/C=C2\Oc3ccc(C#Cc4ccc(O)cc4)cc3C2=O)cc(OC)c1
Found: 4.14

Lookup: Next up: Cn1ccnc1SCC(=O)Nc1ccc2c(c1)OCCO2
Found: 47.8

Lookup: Would you kindly repeat that for O=C(CSCc1ccc([N+](=O)[O-])cc1)Nc1cccc(C(=O)Nc2ccccc2C(=O)O)c1 ?
Found: 99

Lookup: Then this compound: COc1ccc(C(=O)OC(C)C(=O)NC2CCCC2)cc1S(=O)(=O)N1CCOCC1 (configuration not stated)
Found: 0.414

Lookup: Same read-out for CSc1ncccc1C(=O)Nc1nc2ccc(F)cc2s1 ?
Found: -2.85

----------
target: FAD-linked sulfhydryl oxidase ALR (Homo sapiens) (UniProt P55789); test: ALR-catalysed DTT oxidation blockers – biochemical, H2O2 detection, HRP-luminol luminescence, single point, primary screen (AID 485317); conditions: purified ALR, stronger effect = higher value, concentration not given here
The whole screen tested about 290,000 compounds, of which about 11,000 (3.8%) were called active. The full list was thinned out, with actives kept by preference.
measuredProperty: inhibition (%)
# number only, unit % dropped from output

Lookup: // inhibition lookup, key: CC1CCCCC1NC(=O)CSc1nnc(-c2ccncc2)n1CCCN(C)C (centres undefined)
Found: -3.25

Lookup: Now this one: NC(=O)c1oc2ccccc2c1NC(=O)Cc1ccccc1
Found: -7.38

Lookup: Now this one: COc1ccc(C(=O)NCC(=O)N/N=C/c2ccc([N+](=O)[O-])s2)cc1OC
Found: -29.5

Lookup: Now try CC(C)(C)Nc1c(N)c(=O)oc2ccccc12 .
Found: 72.1

----------
target: FAD-linked sulfhydryl oxidase ALR (Homo sapiens) (UniProt P55789); experiment: ALR-catalysed DTT oxidation blockers – biochemical, H2O2 detection, HRP-luminol luminescence, single point, primary screen (AID 485317); details: purified ALR, concentration not given here
In all, about 290,000 compounds went through this assay and about 11,000 (3.8%) were called active.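 How the source made its calls: active means mean replicate inhibition above about 79%, with every replicate also reaching it (limit read from the data); inconclusive means only one of the two criteria met; inactive means mean below limit and not every replicate reaching it.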 What follows is part of a selection rich in actives, with near analogues and random picks from the rest.
Entry note: the call must match one of t = active, f = inactive

Lookup: Would you mind telling me which call this test gave COCCN(C(=O)CC1CCCCC1)c1c(N)n(CC(C)C)c(=O)[nH]c1=O ?
Found: f

Lookup: Same question for Cc1nn(-c2ccccc2)nc1C(=O)OCC(=O)N1CCCCC1C (stereo unspecified) please.
Found: f

Lookup: Next: CC1CN(C(=O)COC(=O)c2cccc(NS(=O)(=O)c3ccccc3)c2)CC(C)O1 (stereo unspecified)
Found: f

Lookup: // next record CCN(CC)CCNC(=O)c1ccc(NC(=O)c2cc(-c3ccncc3)nc3ccccc23)cc1
Found: f

Lookup: Can you check S=c1[nH]nc(COc2ccccc2)n1-c1ccccc1 next?
Found: f

Lookup: Again, but for CC(C)(C)OC(=O)CNC(=O)c1[nH]cnc1C(=O)N[C@@H](CCCCN)C(=O)OC(C)(C)C
Found: f

Lookup: Same read-out for Nc1cccnc1Sc1ccccc1 ?
Found: f

Lookup: Now give it for Cc1ccc(NC(=O)C(C)OC(=O)Cc2c[nH]c3ccccc23)cc1S(=O)(=O)N1CCOCC1 (stereo unspecified) too.
Found: f

Lookup: Thanks! And CCCC(=O)N1c2ccc(-c3csc(N)n3)cc2CC1C (stereo unspecified) ?
Found: t

Lookup: Another: CCNC(=S)N(CCc1c(C)[nH]c2ccc(C)cc12)Cc1ccco1
Found: f

Lookup: What do you have for CN1/C(=C\C(=O)c2cccnc2Cl)C(C)(C)c2ccccc21 ?
Found: f
